- Measurement target: T1, Rat ASGR-1 (rat, UniProt P02706 1-284)
- T1 construct: Expressed on HEK 293 cells or as membrane prep on beads; cDNA GenBank NM_012503
- T1 sequence: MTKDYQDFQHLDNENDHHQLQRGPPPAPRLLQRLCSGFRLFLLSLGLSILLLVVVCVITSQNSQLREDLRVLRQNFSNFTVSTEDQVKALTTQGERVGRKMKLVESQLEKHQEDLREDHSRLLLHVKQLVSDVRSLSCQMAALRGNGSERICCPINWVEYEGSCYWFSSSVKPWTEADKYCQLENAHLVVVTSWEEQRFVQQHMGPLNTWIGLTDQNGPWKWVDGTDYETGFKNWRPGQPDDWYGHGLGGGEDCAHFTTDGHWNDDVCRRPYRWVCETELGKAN
- Experiment: FACS on transfected HEK 293 cells or membrane preps on beads; binding = signal at least 2x irrelevant IgG

Binder: 198G3 (antibody, V domains shown, Tested as hybridoma supernatant at normalized concentration) VH: QVQLVESGGGVVQPGRSLKLSCAASGFTFSTYGMHWVRQAPGKGLEWVAVIWYDGTNKNYADSVKGRFTISRDNSKNTLCLQMNSLRAEDTAVYYCARDQGVGYDGLDVWGQGTTVTVSS VL: DIQMAQSPSSLSASVGDRVTITCRTSQGIGKYLAWFQQKPGKAPKSLLYKASSLQGGVPSKFSGSGSGTDFTLTISSLQPEDFATYYCQQYMTYPLTFGGGTKVEIK
binding result: no binding

Binder: 22G5 (antibody, V domains shown, Tested as hybridoma supernatant at normalized concentration) VH: EVQLLESGGGLVQPGGSLRLSCAASGFTFSSYAMNWVRQAPGMGLEWVSVISRSGGYTYYADSVKGRFTISRDNSKNTLYLQMNSLRAEDTAVYYCASRLAVAGSEAFDIWGQGTLVTVSS VL: DIQMTQSPSSLSASVGDRVTITCRASQNISSYLNWYQQKQGKAPKLLIYAASSLQNGVPSRFSGRGSGTDFTLTISSLQPEDFATYYCQQSYRTPLFTFGPGTKVDFK
binding result: no binding

Binder: 194C1 (antibody, V domains shown, Tested as hybridoma supernatant at normalized concentration) VH: QVQLVESGGGVVQPGRSLRLSCAASGFTFSSYGMHWVRQAPGKGLEWVAVIWYDGSNEHYADSVKGRFTISRDNSKNTLYLQMNSLRAEDTAVYYCARNRGVGYYGLDVWGQGTTVTVSS VL: DIQMTQSPSSLSASVGDRVTITCRASQGISNYLAWFQQKPGKAPKSLIYAASSLQSGVPSKFSGSGSGTDFTLTISSLQPEDFATYYCLHYLTYPLTFGGGTKVEIK
binding result: no binding
